- Assay Text: in vivo
- Measurement Parameters: male, Sprague-Dawley, rat, iv, 1 mg/kg
Measured Parameter: AUC (ng·h/mL)

Compound | Unit Abbrev | Reported Measurement
CCCCCCCCCNc1ccc(F)c(C(N)=O)c1F [Compound F332, 2,6-difluoro-3-(nonylamino)benzamide] | ng·h/mL | 1740

====

- Assay Text: in vivo
- Measurement Parameters: male, Sprague-Dawley, rat, iv, 1 mg/kg

Compound | AUC(0-t)
CCCCCCCCCNc1ccc(F)c(C(N)=O)c1F [Compound F332, 2,6-difluoro-3-(nonylamino)benzamide] | 699 ng·h/mL

====

- Assay Text: In vivo pharmacokinetic study
- Measurement Parameters: male, Sprague-Dawley, rat, iv, 1 mg/kg
Measured Parameter: clearance (mL/min/kg)

Compound | Reported Measurement
CCCCCCCCCNc1ccc(F)c(C(N)=O)c1F [Compound F332, 2,6-difluoro-3-(nonylamino)benzamide] | 10
